Hey, just so you know, these numbers are from patent US6919464B1.

# Tested on: Aphis gossypii
# TEST_PROTOCOL: Cotton Aphid (Aphis gossypii) assay, spray on squash seedlings
# Format: in vivo
# REPORTED_CONDITIONS: rate 50 ppm, relative to plants sprayed with solvent only
MEASUREMENT_NAME: Cotton Aphid mortality (72 h) Mortality (%)
Kindly answer with a numeric value in %, unit omitted.

Recorded results for 3 molecules are shown here.
MOLECULE	REPORTED_MEASUREMENT
CCCOC(C)C=CC1CCCC(OC2CCC(N(C)C)C(C)O2)C(C)C(=O)C2=CC3C(C=CC4CC(OC5OC(C)C(OC)C(OCCC)C5OC)CC43)C2CC(=O)O1 (centres unmarked)	99
COC1C(C)OC(OC2CC3CCC4C5CC(=O)OC(CCC(C)O)CCCC(OC6CCC(N(C)C)C(C)O6)C(C)C(=O)C5=CC4C3C2)C(OC)C1OC (centres unmarked)	11
CC=CC(CC(=O)N(C)C)C1CCCC(OC2CCC(N(C)C)C(C)O2)C(C)C(=O)C2=CC3C(C=CC4CC(OC5OC(C)C(OC)C(OCC)C5OC)CC43)C2CC(=O)O1 (centres unmarked)	48

The molecule listed as CCC=CC1CCCC(OC2CCC(N(C)C(C)=O)C(C)O2)C(C)C(=O)C2=CC3C(C=CC4CC(OC5OC(C)C(OC)C(OC)C5OC)CC43)C2CC(=O)O1 (centres unmarked) has a reported Cotton Aphid mortality (72 h) Mortality (%) of 92

The molecule listed as CCCCOC1C(OC)C(C)OC(OC2CC3CCC4C5CC(=O)OC(CCCC)CCCC(OC6CCC(N(C)C)C(C)O6)C(C)C(=O)C5=CC4C3C2)C1OC (centres unmarked) has a reported Cotton Aphid mortality (72 h) Mortality (%) of 100

The molecule listed as CCC=CC1CCCC(OC2CCC(N(C)C)C(C)O2)C(C)C(=O)C2=CC3C4CC(OC5OC(C)C(OC)C(OCCC)C5OC)CC4CCC3C2CC(=O)O1 (centres unmarked) has a reported Cotton Aphid mortality (72 h) Mortality (%) of 100

----------
# Test system: Aphis gossypii
# TEST_PROTOCOL: Cotton Aphid (Aphis gossypii) assay, spray on squash seedlings
# Type: in vivo
# REPORTED_CONDITIONS: rate 50 ppm, relative to plants sprayed with solvent only
The entries below are paired with their reported Cotton Aphid mortality (72 h) Mortality (%).
Kindly answer with a numeric value in %, unit omitted.

The compound listed as CCOC(C)CCC1CCCC(OC2CCC(N(C)C)C(C)O2)C(C)C(=O)C2=CC3C4CC(OC5OC(C)C(OC)C(OC)C5OC)CC4CCC3C2CC(=O)O1 (stereo not shown) has a reported Cotton Aphid mortality (72 h) Mortality (%) of 79

The compound listed as CCC=CC1CCCC(OC2CCC(N(C)C)C(C)O2)C(C)C(=O)C2=CC3C4CC(OC5OC(C)C(OC)C(OCCCC)C5OC)CC4CCC3C2CC(=O)O1 (stereo not shown) has a reported Cotton Aphid mortality (72 h) Mortality (%) of 99

The compound listed as CCCCCOC1C(OC)C(C)OC(OC2CC3CCC4C5CC(=O)OC(CCCC)CCCC(OC6CCC(N(C)C)C(C)O6)C(C)C(=O)C5=CC4C3C2)C1OC (stereo not shown) has a reported Cotton Aphid mortality (72 h) Mortality (%) of 91

The compound listed as CCOC(C)C=CC1CCCC(OC2CCC(N(C)C)C(C)O2)C(C)C(=O)C2=CC3C(C=CC4CC(OC5OC(C)C(OC)C(OCC)C5OC)CC43)C2CC(=O)O1 (stereo not shown) has a reported Cotton Aphid mortality (72 h) Mortality (%) of 99

----------
# Tested on: Aphis gossypii
# TEST_PROTOCOL: Cotton Aphid (Aphis gossypii) assay, spray on squash seedlings
# Assay type: in vivo
# REPORTED_CONDITIONS: rate 50 ppm, relative to plants sprayed with solvent only
The entries below are paired with their reported Cotton Aphid mortality (72 h) Mortality (%).
Kindly answer with a numeric value in %, unit omitted.

Recorded results for 4 compounds are shown here.
COMPOUND	TGT	REPORTED_MEASUREMENT
CCCCC1CCCC(OC2CCC(N(C)C)C(C)O2)C(C)C(=O)C2=CC3C4CC(OC5OC(C)C(OCC)C(OCC)C5OC)CC4CCC3C2CC(=O)O1 (centres unmarked) [Compound B2]	Aphis gossypii	97
CCCCC1CCCC(OC2CCC(N(C)C)C(C)O2)C(C)C(=O)C2=CC3C4CC(OC5OC(C)C(OC)C(OCCC)C5OC)CC4CCC3C2CC(=O)O1 (centres unmarked) [Compound A16]	Aphis gossypii	100
CCCCC1CCCC(OC2CCC(N(C)C)C(C)O2)C(C)C(=O)C2=CC3C4CC(OC5OC(C)C(OC)C(OCC)C5OC)CC4CCC3C2CC(=O)O1 (centres unmarked) [Compound A15]	Aphis gossypii	100
CC=CC(CC(=O)OC)C1CCCC(OC2CCC(N(C)C)C(C)O2)C(C)C(=O)C2=CC3C(C=CC4CC(OC5OC(C)C(OC)C(OCC)C5OC)CC43)C2CC(=O)O1 (centres unmarked) [Compound A27]	Aphis gossypii	33

Kindly consider the entry below.
The compound listed as CCC=CC1CCCC(OC2CCC(N(C)C)C(C)O2)C(C)C(=O)C2=CC3C4CC(OC5OC(C)C(OC)C(OCC)C5OC)CC4CCC3C2CC(=O)O1 (centres unmarked) [Compound A22] has a reported Cotton Aphid mortality (72 h) Mortality (%) of 99
